measured_target: Hexose transporter 1 (Plasmodium falciparum) (UniProt O97467)
measurement_description: ST_JUDE_LEISH: Cytotoxicity at 2uM final concentration against transgenic Leishmania Mexicana promastigotes LmPfHT that are glucose transport deficient and complemented with the Plasmodium falciparum hexose transporter. Activity is measured by DNA content using SYBR green in vitro
Assay type: functional
Each entry below carries its reported inhibition.
metric: inhibition (%)

compound=COc1cc(CNCCCNc2nc3ncccc3[nH]2)c2[nH]cc(Br)c2c1 measured=43.1
compound=O=C(/C=C/c1ccc(Cl)cc1)NCCCCCN1CCCN(C(=O)Nc2cccc(Cl)c2)CC1 measured=-1.85
compound=Oc1ccc(-c2ccccc2)cc1CNC1CCCCC1 measured=0.92
compound="CN1CCN(CC(O)CNC(=O)Nc2ccc(Cl)cc2)CC1 (stereo not given)" measured=5.03
compound=Cc1cc(C)c2ncc(C(=O)O)c(O)c2c1 measured=3.7
